Entry source: the supplement of paper PMC10681739

subject of test: RUNX1 (UniProt Q01196)
Sequence (Q01196 whole entry): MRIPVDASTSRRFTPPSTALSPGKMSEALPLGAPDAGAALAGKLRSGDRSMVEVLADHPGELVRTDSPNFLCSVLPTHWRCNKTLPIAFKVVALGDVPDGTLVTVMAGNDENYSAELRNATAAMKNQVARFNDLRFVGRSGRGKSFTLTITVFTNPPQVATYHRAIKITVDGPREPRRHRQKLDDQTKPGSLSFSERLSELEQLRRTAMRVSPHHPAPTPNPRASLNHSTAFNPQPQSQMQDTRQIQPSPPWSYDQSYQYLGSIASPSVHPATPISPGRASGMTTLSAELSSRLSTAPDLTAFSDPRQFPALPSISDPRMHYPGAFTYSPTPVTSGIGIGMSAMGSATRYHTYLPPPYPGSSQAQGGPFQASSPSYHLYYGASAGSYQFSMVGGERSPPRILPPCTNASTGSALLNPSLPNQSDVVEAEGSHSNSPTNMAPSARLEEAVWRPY
assay notes: RUNX1 binding intensity (PBM fluorescence), RUNX1 alone (arbitrary fluorescence units); higher = stronger binding
experimental setup: RUNX1 concentration 2 nM; ETS1 concentration 0 nM
Entries are grouped by RUNX1 binding intensity into these classes: group A: < 800; group B: ≥ 800 and < 1000; group C: ≥ 1000

Task: Input GGTCCGGATGTATAAAGCGCGGCCCCCTGCGGGGAG ; output its category
Output: group A

====

subject of test: ETS1 (UniProt P14921)
Sequence: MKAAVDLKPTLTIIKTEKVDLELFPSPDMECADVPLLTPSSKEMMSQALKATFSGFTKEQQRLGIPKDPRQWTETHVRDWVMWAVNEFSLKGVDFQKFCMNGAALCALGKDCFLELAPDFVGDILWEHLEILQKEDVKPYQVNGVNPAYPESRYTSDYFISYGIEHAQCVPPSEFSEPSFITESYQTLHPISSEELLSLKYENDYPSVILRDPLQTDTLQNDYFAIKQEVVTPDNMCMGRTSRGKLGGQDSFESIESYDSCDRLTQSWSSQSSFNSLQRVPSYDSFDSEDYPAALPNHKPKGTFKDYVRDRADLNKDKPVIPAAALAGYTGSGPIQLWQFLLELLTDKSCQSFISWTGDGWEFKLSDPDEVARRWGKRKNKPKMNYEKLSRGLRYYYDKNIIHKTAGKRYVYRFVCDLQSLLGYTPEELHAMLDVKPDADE
assay notes: ETS1 binding intensity (PBM fluorescence) in presence of RUNX1, normalised to ETS1-only experiment (arbitrary fluorescence units); higher = stronger binding
experimental setup: ETS1 concentration 1 nM; RUNX1 concentration 25 nM
Exercise: for every item that follows, state its recorded ETS1 binding intensity.
Numbers only.

Please review the entries below; each comes with its answer.
AAGTCAGAGTTTACTTCCGAACCCACAGTGCCAAGC :: 486
GTCCTCCACTATTGTTTCCGGCCGCAGCAGAGGCGG :: 2090
TCAGGGGTGGGAGGAAGTGGTTAGGATCAGCCTGGG :: 3120
CCTCTTGCTGCCTCTTCCTGTGGTCTTTTCTCTGTC :: 951
GGGCCCACATCCGGCGCGCGCAACCGCAGCCTACTG :: 6540

Items follow; give ETS1 binding intensity for each.
1. CTTACAGATAAGGAAACTGAGGTTAAAATGTAGGGG
2. GCGGAGTGTTACGTAGGAAGTGGTTGTGACGTCATT

Output:
1. 656
2. 1540

====

subject of test: ETS1 (UniProt P14921)
Sequence: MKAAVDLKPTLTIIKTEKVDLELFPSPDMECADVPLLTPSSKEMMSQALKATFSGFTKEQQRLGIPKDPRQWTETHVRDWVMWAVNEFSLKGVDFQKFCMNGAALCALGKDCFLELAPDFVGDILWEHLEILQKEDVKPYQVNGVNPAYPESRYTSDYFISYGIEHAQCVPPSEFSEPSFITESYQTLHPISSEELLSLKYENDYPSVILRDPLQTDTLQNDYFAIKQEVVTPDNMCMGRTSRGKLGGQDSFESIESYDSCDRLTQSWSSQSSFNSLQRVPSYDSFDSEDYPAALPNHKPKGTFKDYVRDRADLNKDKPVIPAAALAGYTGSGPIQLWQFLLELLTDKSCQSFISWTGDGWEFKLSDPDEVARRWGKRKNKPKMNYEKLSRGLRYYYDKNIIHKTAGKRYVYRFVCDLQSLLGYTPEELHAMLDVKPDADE
assay notes: ETS1 binding intensity (PBM fluorescence) in presence of RUNX1, normalised to ETS1-only experiment (arbitrary fluorescence units); higher = stronger binding
experimental setup: ETS1 concentration 1 nM; RUNX1 concentration 25 nM
Entries are grouped by ETS1 binding intensity into these classes: low band: < 900; middle band: ≥ 900 and < 6000; high band: ≥ 6000

TCGTGAAAAAGGAAGTGGATAAAGTGGTTACGGCAA :: middle band

Task: Input CAGACAGGAGGCGGATGTGGGTGGCGCAGAATGAGC ; output its category
Output: middle band

Task: Input AGCCGTTTCCGGCGCTCTACCCCGCCGCAGGCCGAG ; output its category
Output: middle band

====

Exercise: for every item that follows, state its recorded ETS1 binding intensity.
subject of test: ETS1 (UniProt P14921)
Sequence: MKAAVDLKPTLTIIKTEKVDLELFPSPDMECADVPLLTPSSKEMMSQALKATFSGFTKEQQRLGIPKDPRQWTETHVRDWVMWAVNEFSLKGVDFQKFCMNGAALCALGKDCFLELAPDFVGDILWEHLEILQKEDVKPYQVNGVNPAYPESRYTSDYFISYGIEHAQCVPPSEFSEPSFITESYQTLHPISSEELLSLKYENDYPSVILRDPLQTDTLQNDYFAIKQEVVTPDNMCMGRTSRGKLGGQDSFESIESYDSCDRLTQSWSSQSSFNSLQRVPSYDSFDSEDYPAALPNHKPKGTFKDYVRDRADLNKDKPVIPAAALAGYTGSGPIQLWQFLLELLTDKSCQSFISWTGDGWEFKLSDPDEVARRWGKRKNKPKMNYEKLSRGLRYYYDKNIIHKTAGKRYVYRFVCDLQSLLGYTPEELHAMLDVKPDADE
assay notes: ETS1 binding intensity (PBM fluorescence), ETS1 alone (arbitrary fluorescence units); higher = stronger binding
experimental setup: ETS1 concentration 1 nM; RUNX1 concentration 0 nM
Answers are plain numbers.

Please review the entries below; each comes with its answer.
GGGTTGGGTGCCGGATGCGGTGAGTGAGGTTCTCAT :: 2930
AGGTGGGAGGAAGTTCCTACCCCGGCGCGGTGTGCA :: 625
CCCCTCGCCCTTCCGCATTGCGGGTTACTTCGGTTG :: 521
GACCACTTCCTTTCTGTGTTTTGTGGTTTCACAACT :: 555
TATCTCCTATCTCCAGGAAGTGGTTAGCCCTAGGAG :: 3210

Items follow; give ETS1 binding intensity for each.
1. GGACCGGTGTCTGGCGGATGCGGTCGTGAAGATAGG
2. CAAGCTGGCAGGAAGCGCGGTGCAACCACAAGAGTC
3. TTCGGATTCCCGGAAGAACCCGCAGCAGCTCCCAGG

Output:
1: 1200; 2: 1870; 3: 792

====

subject of test: RUNX1 (UniProt Q01196)
assay notes: RUNX1 binding intensity (PBM fluorescence) in presence of ETS1, normalised to RUNX1-only experiment (arbitrary fluorescence units); higher = stronger binding
experimental setup: RUNX1 concentration 2 nM; ETS1 concentration 25 nM
Assign Condition met to entries whose RUNX1 binding intensity meets or exceeds 1000; assign Condition not met to the rest.

# example entries with known answers
CCGATGGCGGCGGAACTGTGGTCAGGGCTGCCCTGA :: Condition not met
GGCTTCCGGCGGGGTACCCTCCTCTGTGGGCGGGGC :: Condition met

Task: Could you verify whether the entry ACACTGAGCTGAACGGAAATGTGGTTCTCACCTCAT shows RUNX1 binding intensity of no less than 1000?
Output: Condition met

Task: Could you verify whether the entry CCGCCGCGCGCCGGATGCTAAGACCGCGATTTCCCC shows RUNX1 binding intensity of no less than 1000?
Output: Condition met

Task: Could you verify whether the entry CACTTCCCCCAGCCTCTCTTTTTAATACCACAATAG shows RUNX1 binding intensity of no less than 1000?
Output: Condition met

====

subject of test: ETS1 (UniProt P14921)
Sequence: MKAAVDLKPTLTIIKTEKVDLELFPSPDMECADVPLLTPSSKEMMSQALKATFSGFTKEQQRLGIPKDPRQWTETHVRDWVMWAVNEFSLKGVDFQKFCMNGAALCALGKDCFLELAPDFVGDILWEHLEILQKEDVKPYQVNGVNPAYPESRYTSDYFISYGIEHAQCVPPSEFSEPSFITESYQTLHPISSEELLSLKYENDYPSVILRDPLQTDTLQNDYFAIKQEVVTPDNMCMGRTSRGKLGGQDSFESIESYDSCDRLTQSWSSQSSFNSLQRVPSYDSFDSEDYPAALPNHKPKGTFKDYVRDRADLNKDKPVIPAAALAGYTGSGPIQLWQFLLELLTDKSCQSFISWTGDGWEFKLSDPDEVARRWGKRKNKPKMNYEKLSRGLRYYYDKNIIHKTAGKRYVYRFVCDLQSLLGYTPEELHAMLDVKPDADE
assay notes: ETS1 binding intensity (PBM fluorescence) in presence of RUNX1, normalised to ETS1-only experiment (arbitrary fluorescence units); higher = stronger binding
experimental setup: ETS1 concentration 1 nM; RUNX1 concentration 25 nM
Exercise: for every item that follows, state its recorded ETS1 binding intensity.
Answers are plain numbers.

Please review the entries below; each comes with its answer.
AGCCCGCCGGAAACTAGCGTCACCGCGCCAAGGTTC :: 1250
ATGCGAGTCTGCTTCCTGCCACAAATCACAATTTGA :: 686
GCTGCGCAGAGGAAACCAGGCTTGTTGGTTTTCATG :: 457
ACTCCGCCCCTTCCGCCTGGCGGTTCCACTTCTCGG :: 456

Items follow; give ETS1 binding intensity for each.
1. TTCTGTAGCTTAGGATGTGGGTTTCTTTGTTTCTGA
2. GCACGCCATCGAGGAAGTGGGTTTACTGTGTATTTC

Output:
[1020, 1110]

Items follow; give ETS1 binding intensity for each.
1. AGGCCCGGATACCCGCCCCCAAAACCGCGTCCACAA
2. GAGTGACTGCTAACGGATGTGTGGTTTCTTTAGTTT

Output:
1. 1050
2. 6590

Items follow; give ETS1 binding intensity for each.
1. TATGACCAGGGGAGGGAAGTGACCACAGCATATCAC
2. CCTGGTCCGGAAGCGCTGTCCCCGCCTCCCGCATAG
3. CAACTCACATCCTCTGGCAACAACCACTAATCCACT
4. AAGAGGAAGTCCCAAATTGCTTTTTAACCACCAACA
5. TCGCATAGCCGGGAAGCGCGGTGGAGGTTGTTGGGG
6. AGCGGCCTGGGAGGAGGATGTGGTTACGTGGAGACC

Output:
[823, 2430, 525, 874, 473, 15200]

Items follow; give ETS1 binding intensity for each.
1. CAGAAAGAGGAAATGATGCGAGTCCACACCGCAGGC
2. GCTGAGGCCGGAAGAGGGTGGGGCCGCGGTGGCTAG

Output:
2610
3070

Items follow; give ETS1 binding intensity for each.
1. TGCTCAGAAGGGCATCCGGTTGCGGAGAAGGTACAC
2. GGCACCGGAAGTAGAGCTGCCCCTAGTTGCGGCAGT
3. CCATTCTTCCGGTGGAGATGGCTGCGGCCGTGGCGG
4. AGCCCTCTGCAACTTCCCGGCCCCACAGCCCCACCC
5. GCTCCGCTTCCGGGAGGCGGGGCTTCTGCGGGTTCC

Output:
1: 2000; 2: 12800; 3: 588; 4: 575; 5: 2520

Items follow; give ETS1 binding intensity for each.
1. GCCATGGCCACTTCCTGCTTGTAACCACAGCCCAGA
2. TTCATCTACTTCCCGCCACACCCACAGAGAAGCCCA
3. CTGTTTCCGAGTAAAGTAGGGTGTGTGGGTCACATG
4. TGTCTCTGCCGCCGGAAACCGCGCCGTAGATCATGC
5. GAACATGGTCTCCGCTTCCGCCGCAACCTCGGCCTT
6. GAGAGGAGGATGTTGTCAGATACCCACAAATGAGAA
7. GAGACTTTCGCTTCCGGCTGCCGCAGGCGCTTCGCT
8. TAGACTAACAGGGGAGGAAGTGGGTTGCAAGCCGTG

Output:
1: 13200; 2: 377; 3: 395; 4: 7800; 5: 744; 6: 621; 7: 1700; 8: 2740

Items follow; give ETS1 binding intensity for each.
1. GGGGGCGGAAGTTTCGGTGCATTGTGGGTTCTCCTG
2. AGATGGTGTGGCCGGATGGGGACCACATTGAAGAGA
3. GCCCAGGGAAGCACTTCCTGCGGGGCGCGGTGCAGC
4. TACCAACAGGAATCTTTGGGGTCTAAACCGCAAACA
5. TGTTTACTTCCTGGAGGCACTTTGGTTTTTCTTTCT
6. GCGGGAAAAGGGAAGTTTGCGGGAGGTCAAATCCAC
7. TGAGCAAGTTCCTTCCTGTCTGTGGTCCAGGGTTTA

Output:
1: 1980; 2: 1240; 3: 1270; 4: 2160; 5: 325; 6: 550; 7: 881

Items follow; give ETS1 binding intensity for each.
1. CATCAAAAACAGAGGAAGCCACAGCAAATTGCTGCC
2. ACTGAACAAACCGGATGTGGTTCCCACCTGCAATCT
3. GGAGGGGAGCAGGAAGCTGAGGTTTTGTGAGTCAGA

Output:
[418, 29500, 2490]
